Value source: patent US11541050B2

# Tested on: HCV replicon in Huh-7 luc/neo cells
# experimental_protocol: Suppression of HCV replicon replication by conditioned media from compound-treated PBMC
# Assay type: cell-based, HCV type 1 b
# experimental_setup: Hepatitis C virus; conditioned media from compound-treated PBMC on Huh-7 luc/neo replicon cells (compounds 74 onward); read-out: PBMC HUH-7 EC50
observation_type: log10 of EC50 (log10 of the value in nM)

INSERT INTO measurements (compound, assayed_target, observation_type, measurement) VALUES
  ('CCC[C@@H](CO)Nc1nc(N)ncc1OCc1ccc2ccccc2n1 [Compound 192]', 'HCV replicon in Huh-7 luc/neo cells', 'log10 of EC50', 1.64),
  ('COc1cnc(N)nc1NCCCCF [Compound 97]', 'HCV replicon in Huh-7 luc/neo cells', 'log10 of EC50', 3.42),
  ('CCCCNc1nc(N)ncc1OCCCc1cccc(OC)c1 [Compound 146]', 'HCV replicon in Huh-7 luc/neo cells', 'log10 of EC50', 2.85),
  ('CCCCNc1nc(N)ncc1OCCOc1ccnc2ccccc12 [Compound 128]', 'HCV replicon in Huh-7 luc/neo cells', 'log10 of EC50', 2.45),
  ('CCCC[C@@H](CCO)Nc1nc(N)ncc1OCc1ccc2ccccc2n1 [Compound 186]', 'HCV replicon in Huh-7 luc/neo cells', 'log10 of EC50', 1.81);

---

// values below are reported TLR8-wt_LEC
# assayed_target: human TLR8 (wild type sequence) (Homo sapiens, UniProt Q9NR97)
# Construct: expressed in transfected cells; host or cells: HEK293
# Sequence (Q9NR97 27-1041): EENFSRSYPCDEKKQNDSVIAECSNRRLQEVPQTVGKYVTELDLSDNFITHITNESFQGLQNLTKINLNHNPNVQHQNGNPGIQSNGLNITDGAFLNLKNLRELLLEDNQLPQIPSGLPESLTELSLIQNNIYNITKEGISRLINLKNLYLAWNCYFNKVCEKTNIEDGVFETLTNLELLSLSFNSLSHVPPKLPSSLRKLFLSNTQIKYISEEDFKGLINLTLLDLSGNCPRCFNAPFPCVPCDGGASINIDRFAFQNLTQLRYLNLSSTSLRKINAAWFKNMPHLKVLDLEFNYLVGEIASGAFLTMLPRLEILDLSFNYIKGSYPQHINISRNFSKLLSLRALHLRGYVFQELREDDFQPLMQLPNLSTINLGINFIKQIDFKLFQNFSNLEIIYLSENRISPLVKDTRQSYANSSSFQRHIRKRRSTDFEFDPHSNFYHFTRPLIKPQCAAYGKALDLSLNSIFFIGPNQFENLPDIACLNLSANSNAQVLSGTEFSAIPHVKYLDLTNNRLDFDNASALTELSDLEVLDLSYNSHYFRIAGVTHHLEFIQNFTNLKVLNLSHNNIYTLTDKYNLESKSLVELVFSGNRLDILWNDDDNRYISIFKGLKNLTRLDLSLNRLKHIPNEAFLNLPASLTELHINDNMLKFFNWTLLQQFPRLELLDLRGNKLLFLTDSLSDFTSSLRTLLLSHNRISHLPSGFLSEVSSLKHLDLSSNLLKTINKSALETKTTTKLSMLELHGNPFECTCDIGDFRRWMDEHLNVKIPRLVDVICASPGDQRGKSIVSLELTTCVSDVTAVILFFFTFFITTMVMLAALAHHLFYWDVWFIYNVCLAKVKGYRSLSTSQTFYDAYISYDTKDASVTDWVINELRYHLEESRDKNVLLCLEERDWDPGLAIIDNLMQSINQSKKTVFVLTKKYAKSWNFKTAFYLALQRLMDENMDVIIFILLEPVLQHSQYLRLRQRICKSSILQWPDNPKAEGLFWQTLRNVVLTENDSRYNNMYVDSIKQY
# experimental_protocol: TLR8 cellular NFκB-luc reporter assay, wild type TLR8
# Type: cell-based
# Design: unit not given here
# experimental_setup: lowest effective concentration, wild type TLR8 (compounds 1-73)
observation_type: TLR8-wt_LEC

INSERT INTO measurements (compound, censoring_qualifier, measurement) VALUES
  ('CCCCNc1nc(N)ncc1OCCOCCOC [Compound 61]', '=', 3.59),
  ('CCCCNc1nc(N)nc(C)c1Oc1ccccc1 [Compound 3]', '=', 4.91),
  ('C=CCCOc1cnc(N)nc1NCCCC [Compound 16]', '=', 2.68),
  ('CCCC[C@H](CO)Nc1nc(N)ncc1OC [Compound 73]', '=', 0.80),
  ('CCCCNc1nc(N)ncc1OCCOC [Compound 17]', '=', 2.03),
  ('CCCCNc1nc(N)ncc1Oc1ccccc1 [Compound 71]', '>', 24.59),
  ('CCCCNc1nc(N)ncc1OCC1CC1 [Compound 39]', '=', 14.41),
  ('CCCCNc1nc(N)ncc1OCCN [Compound 30]', '=', 6.44),
  ('CCCCNc1nc(N)ncc1OCc1cc(-c2ccc(OC)cc2)no1 [Compound 35]', '=', 1.67),
  ('CCCCNc1nc(N)ncc1OCCCc1ccc(OC)cc1 [Compound 2]', '=', 1.34),
  ('CCCC[C@@H](CCO)Nc1nc(N)ncc1OC [Compound 54]', '=', 1.40),
  ('CCCCNc1nc(N)ncc1OCc1ccncc1 [Compound 18]', '=', 1.87),
  ('CCC[C@@H](CCO)Nc1nc(N)ncc1OC [Compound 57]', '=', 1.80),
  ('CCCCCNc1nc(N)ncc1Oc1ccccc1OC [Compound 38]', '>', 50),
  ('CCCC[C@@H](CO)Nc1nc(N)ncc1OC [Compound 59]', '=', 0.36),
  ('CCCCNc1nc(N)ncc1OCc1ccc(C(=O)O)cc1OC [Compound 67]', '>', 24.59),
  ('CCCCNc1nc(N)nc(C)c1Oc1ccccc1OC [Compound 7]', '=', 5.84),
  ('CCCCNc1nc(N)ncc1OCCC [Compound 5]', '=', 4.53),
  ('C=CCCCCOc1cnc(N)nc1NCCCC [Compound 20]', '=', 10.21),
  ('CCCCNc1nc(N)ncc1OCc1ccc2ccccc2n1 [Compound 41]', '=', 0.83),
  ('CCCCNc1nc(N)ncc1OCc1ccccc1-c1ccccc1 [Compound 25]', '>', 25),
  ('CC[C@H](C)[C@@H](CO)Nc1nc(N)ncc1OC [Compound 68]', '=', 0.56),
  ('CCCCNc1nc(N)ncc1OCc1occc1C(=O)OC [Compound 45]', '=', 0.58);

---

# assayed_target: human TLR7 (wild type sequence) (Homo sapiens, UniProt Q9NYK1)
# Construct: expressed in transfected cells; host or cells: HEK293
# experimental_protocol: TLR7 cellular NFκB-luc reporter assay, wild type TLR7
# Format: cell-based
# Set-up: unit not given here
# experimental_setup: lowest effective concentration, wild type TLR7 (compounds 74 onward)
# Protocol: The ability of compounds to activate human TLR7 and/or TLR8 was assessed in a cellular reporter assay using HEK293 cells transiently transfected with a TLR7 or TLR8 expression vector and NFκB-luc reporter construct. In one instance the TLR expression construct expresses the respective wild type sequence or a mutant sequence comprising a deletion in the second leucine-rich repeat of the TLR. Briefly, HEK293 cells were grown in culture medium (DMEM supplemented with 10% FCS and 2 mM Glutamine). […]
Categories are assigned from the measured TLR 7 wt LEC using these intervals: class 1: < 0.8; class 2: ≥ 0.8 and < 2; class 3: ≥ 2

INSERT INTO measurements (molecule, assigned_class) VALUES
  ('CCCCNc1nc(N)ncc1OCCCc1cccc(OC)c1', 'class 2'),
  ('COc1cnc(N)nc1NCCCCF', 'class 3'),
  ('CCCCNc1nc(N)ncc1OCc1cc2ccccc2n(CCC(C)C)c1=O', 'class 3'),
  ('CCCC(C)Nc1nc(N)ncc1OCCCc1ccccc1 (centres unmarked)', 'class 3'),
  ('CCCC[C@@H](CCO)Nc1nc(N)ncc1OCc1ccc2ccccc2n1', 'class 1'),
  ('CCCCNc1nc(N)ncc1OCCOc1cc(C(C)C)nc2cc(OC)ccc12', 'class 3'),
  ('CCCCNc1nc(N)ncc1OCCOc1ccnc2cc(OC)ccc12', 'class 3'),
  ('CCCCNc1nc(N)ncc1OCc1cc(OCC2CC2)c(OC)cn1', 'class 1'),
  ('CCCC[C@@H](CO)Nc1nc(N)ncc1OCCCc1ccccc1', 'class 3'),
  ('CCCCNc1nc(N)ncc1OCc1cc(C)n(C)n1', 'class 1'),
  ('CCCCNc1nc(N)ncc1OCc1ccc2ccccc2n1', 'class 1'),
  ('CCCCCNc1nc(N)ncc1OC(C)c1ccccc1 (centres unmarked)', 'class 3'),
  ('CCCCNc1nc(N)ncc1OCCCc1cc(OC)c(OC)cc1OC', 'class 1'),
  ('CCCCNc1nc(N)ncc1OCCOc1ccncc1', 'class 2'),
  ('CCCCNc1nc(N)ncc1OCc1cccc(C(=O)c2ccccc2)c1', 'class 2'),
  ('CCCCNc1nc(N)ncc1OCCCc1cc(OC)c(OC)c(OC)c1', 'class 1'),
  ('CCCCNc1nc(N)ncc1OCc1nccc(OCC(F)(F)F)c1C', 'class 1'),
  ('CCCCNc1nc(N)ncc1OCc1cc(OC2CCOC2)c(OC)cn1 (centres unmarked)', 'class 1'),
  ('CCCCNc1nc(N)ncc1OCC(C)(O)CC (centres unmarked)', 'class 3'),
  ('CCCCNc1nc(N)ncc1OCCCc1ccc(Cl)cc1Cl', 'class 3'),
  ('CCCCNc1nc(N)ncc1OCCn1ccc(=O)c2ccc(OC)cc21', 'class 3'),
  ('CCC[C@@H](CCO)Nc1nc(N)ncc1OCc1ncc(C)c(OC)c1C', 'class 1'),
  ('CCCC(C)Nc1nc(N)nc(C)c1OCc1ccccc1 (centres unmarked)', 'class 3'),
  ('CCC[C@H](CCO)Nc1nc(N)ncc1OCc1ccccc1', 'class 3'),
  ('CCCCNc1nc(N)ncc1OCc1ccc(C(F)(F)F)o1', 'class 2'),
  ('CCCCNc1nc(N)ncc1OCCCc1ccccc1OC', 'class 3'),
  ('CCCCNc1nc(N)ncc1OCCCc1ccc(Cl)c(Cl)c1', 'class 3'),
  ('CCCCNc1nc(N)ncc1O[C@H](C)c1ccccc1', 'class 3'),
  ('CCCCNc1nc(N)ncc1OCCOCc1ccccc1', 'class 2'),
  ('CCCCNc1nc(N)ncc1OCCCCCc1ccccc1', 'class 1'),
  ('CCCCNc1nc(N)ncc1OCc1noc(-c2ccccc2)n1', 'class 2'),
  ('CCCCNc1nc(N)ncc1OCCCCc1ccccc1', 'class 3'),
  ('CCCCNc1nc(N)ncc1OCCC(c1ccccc1)c1ccccc1', 'class 2'),
  ('CCCCNc1nc(N)ncc1OCC(=O)c1ccc(OC)cc1', 'class 2'),
  ('CCCCNc1nc(N)ncc1OCCCc1cccc(OC)c1OC', 'class 2'),
  ('CCCCNc1nc(N)ncc1OCC(C)(C)O', 'class 3');

---

// values below are reported TLR7-wt_LEC
# assayed_target: human TLR7 (wild type sequence) (Homo sapiens)
# Construct: expressed in transfected cells; host or cells: HEK293
# Sequence (Q9NYK1 27-1049): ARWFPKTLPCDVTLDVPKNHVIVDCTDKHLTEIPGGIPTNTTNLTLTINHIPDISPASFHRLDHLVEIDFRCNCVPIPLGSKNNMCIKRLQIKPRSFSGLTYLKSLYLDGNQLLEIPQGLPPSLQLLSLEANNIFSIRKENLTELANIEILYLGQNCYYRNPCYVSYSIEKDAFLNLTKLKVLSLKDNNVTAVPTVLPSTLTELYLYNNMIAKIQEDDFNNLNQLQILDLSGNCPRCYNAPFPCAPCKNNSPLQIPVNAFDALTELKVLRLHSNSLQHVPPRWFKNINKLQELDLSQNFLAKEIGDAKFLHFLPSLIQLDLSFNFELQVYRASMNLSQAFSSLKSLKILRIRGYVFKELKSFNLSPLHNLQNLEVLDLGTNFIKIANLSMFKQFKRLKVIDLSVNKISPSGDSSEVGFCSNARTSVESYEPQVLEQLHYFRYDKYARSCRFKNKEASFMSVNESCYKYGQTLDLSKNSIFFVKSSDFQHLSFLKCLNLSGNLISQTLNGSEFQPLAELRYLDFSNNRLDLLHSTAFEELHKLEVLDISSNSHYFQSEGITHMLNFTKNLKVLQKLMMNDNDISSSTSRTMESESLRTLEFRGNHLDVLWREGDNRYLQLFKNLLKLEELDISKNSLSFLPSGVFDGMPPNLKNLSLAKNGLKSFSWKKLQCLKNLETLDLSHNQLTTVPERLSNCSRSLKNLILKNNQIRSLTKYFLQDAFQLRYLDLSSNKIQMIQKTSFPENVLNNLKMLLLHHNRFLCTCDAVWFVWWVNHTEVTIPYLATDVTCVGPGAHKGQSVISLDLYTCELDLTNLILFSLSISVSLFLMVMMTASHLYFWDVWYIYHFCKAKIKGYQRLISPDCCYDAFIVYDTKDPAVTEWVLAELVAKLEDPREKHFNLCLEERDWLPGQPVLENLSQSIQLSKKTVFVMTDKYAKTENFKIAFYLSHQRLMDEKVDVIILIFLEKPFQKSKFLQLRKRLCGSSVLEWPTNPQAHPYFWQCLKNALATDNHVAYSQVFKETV
# experimental_protocol: TLR7 cellular NFκB-luc reporter assay, wild type TLR7
# Type: cell-based
# Parameters: unit not given here
# experimental_setup: lowest effective concentration, wild type TLR7
observation_type: TLR7-wt_LEC

INSERT INTO results (compound, censoring_qualifier, measurement) VALUES
  ('CCCC[C@@H](CCO)Nc1nc(N)ncc1OCc1nnn[nH]1 [Compound 297]', '=', 2.810),
  ('CCC[C@@H](CO)Nc1nc(N)ncc1OCc1cn2ccccc2n1 [Compound 215]', '=', 0.171),
  ('CCC(C)[C@H](CCO)Nc1nc(N)ncc1OC (stereo partly shown) [Compound 275]', '=', 10.380),
  ('CCCC[C@@H](CCO)Nc1nc(N)ncc1OCc1ncccc1OC [Compound 241]', '=', 0.008),
  ('CCCCNc1nc(N)ncc1OCc1ccc2cccnc2n1 [Compound 236]', '=', 0.241),
  ('CCCC[C@H](CCO)Nc1nc(N)ncc1OC [Compound 229]', '>', 25),
  ('CCCC[C@@H](CO)Nc1nc(N)ncc1OCCCc1ccc2c(c1)OCO2 [Compound 228]', '=', 1.410),
  ('CCC[C@@H](CCO)Nc1cc(O[C@@H]2CCc3c(Cl)ccnc32)nc(N)n1 [Compound 283]', '=', 17.180),
  ('CCCCNc1nc(N)ncc1OCc1cnccn1 [Compound 199]', '=', 0.512),
  ('CCCCNc1nc(N)ncc1OCc1ccc(C#N)cc1 [Compound 210]', '=', 0.686);
